# Subject Of Test: NMDA receptor
# Measurement Protocol: Competitive radioligand binding at NMDA receptor ([3H] MK801), rat forebrain membranes
# Condition Details: 0.2 nM [3H] MK801, reflects free base activity
For each of the molecules below, state its IC50.

[[record]]
molecule = "CN1CC[C@]23CCCC[C@H]2[C@H]1Cc1cc2sc(NC(=O)C4CCN(C(=O)OC(C)(C)C)CC4)nc2cc13 [Compound 85]"
value_observed = "> 10 µM"

[[record]]
molecule = "CN1CC[C@]23CCCC[C@H]2[C@H]1Cc1ccc(NS(C)(=O)=O)cc13 [Compound 37]"
value_observed = "1 to 10 µM"

[[record]]
molecule = "COc1ccc(Nc2ccc3c(c2)[C@@]24CCCC[C@H]2[C@@H](C3)N(C)CC4)cc1 [Compound 28]"
value_observed = "1 to 10 µM"


Lab note: next molecule to report on.
IN: Quick one: IC50 of COc1ccccc1C(=O)Nc1ccc2c(c1)[C@@]13CCCC[C@H]1[C@@H](C2)N(C)CC3 [Compound 26] ?
OUT: > 10 µM

Where these numbers come from: patent US10766864B2
